Test system: Calu-3
Experiment: cell viability relative to DMSO; higher = less toxic
Details: 72 h; 1000 nM
Documented cell viability across a set of molecules
Write the answer as a number in %, unit excluded.

[[record]]
molecule = "O=C1CN(/N=C/c2ccc(-c3ccc([N+](=O)[O-])cc3)o2)C(=O)N1"
assay_readout = "cell viability"
output_unit = "%"
value_measured = 102


q: Give a short answer stating reported cell viability for CC[C@H]1OC(=O)[C@H](C)[C@@H](O[C@H]2C[C@@](C)(OC)[C@@H](O)[C@H](C)O2)[C@H](C)[C@@H](O[C@@H]2O[C@H](C)C[C@H](N(C)C)[C@H]2O)[C@](C)(O)C[C@@H](C)C(=O)[C@H](C)[C@@H](O)[C@]1(C)O .
a: 90

q: Give a short answer stating reported cell viability for C[C@H](O)[C@H](O)[C@H]1CNc2nc(N)[nH]c(=O)c2N1 .
a: 106

q: Give a short answer stating reported cell viability for CC1(C)CN(C(=O)c2ccc(-c3cccc4nc(NC(=O)C5CC5)nn34)cc2)C1 .
a: 101

Provenance of the data: the supplement of paper PMC13380429
